Biological target: Ataxin-2 (Homo sapiens) (UniProt Q99700)
Sequence (Q99700 whole entry): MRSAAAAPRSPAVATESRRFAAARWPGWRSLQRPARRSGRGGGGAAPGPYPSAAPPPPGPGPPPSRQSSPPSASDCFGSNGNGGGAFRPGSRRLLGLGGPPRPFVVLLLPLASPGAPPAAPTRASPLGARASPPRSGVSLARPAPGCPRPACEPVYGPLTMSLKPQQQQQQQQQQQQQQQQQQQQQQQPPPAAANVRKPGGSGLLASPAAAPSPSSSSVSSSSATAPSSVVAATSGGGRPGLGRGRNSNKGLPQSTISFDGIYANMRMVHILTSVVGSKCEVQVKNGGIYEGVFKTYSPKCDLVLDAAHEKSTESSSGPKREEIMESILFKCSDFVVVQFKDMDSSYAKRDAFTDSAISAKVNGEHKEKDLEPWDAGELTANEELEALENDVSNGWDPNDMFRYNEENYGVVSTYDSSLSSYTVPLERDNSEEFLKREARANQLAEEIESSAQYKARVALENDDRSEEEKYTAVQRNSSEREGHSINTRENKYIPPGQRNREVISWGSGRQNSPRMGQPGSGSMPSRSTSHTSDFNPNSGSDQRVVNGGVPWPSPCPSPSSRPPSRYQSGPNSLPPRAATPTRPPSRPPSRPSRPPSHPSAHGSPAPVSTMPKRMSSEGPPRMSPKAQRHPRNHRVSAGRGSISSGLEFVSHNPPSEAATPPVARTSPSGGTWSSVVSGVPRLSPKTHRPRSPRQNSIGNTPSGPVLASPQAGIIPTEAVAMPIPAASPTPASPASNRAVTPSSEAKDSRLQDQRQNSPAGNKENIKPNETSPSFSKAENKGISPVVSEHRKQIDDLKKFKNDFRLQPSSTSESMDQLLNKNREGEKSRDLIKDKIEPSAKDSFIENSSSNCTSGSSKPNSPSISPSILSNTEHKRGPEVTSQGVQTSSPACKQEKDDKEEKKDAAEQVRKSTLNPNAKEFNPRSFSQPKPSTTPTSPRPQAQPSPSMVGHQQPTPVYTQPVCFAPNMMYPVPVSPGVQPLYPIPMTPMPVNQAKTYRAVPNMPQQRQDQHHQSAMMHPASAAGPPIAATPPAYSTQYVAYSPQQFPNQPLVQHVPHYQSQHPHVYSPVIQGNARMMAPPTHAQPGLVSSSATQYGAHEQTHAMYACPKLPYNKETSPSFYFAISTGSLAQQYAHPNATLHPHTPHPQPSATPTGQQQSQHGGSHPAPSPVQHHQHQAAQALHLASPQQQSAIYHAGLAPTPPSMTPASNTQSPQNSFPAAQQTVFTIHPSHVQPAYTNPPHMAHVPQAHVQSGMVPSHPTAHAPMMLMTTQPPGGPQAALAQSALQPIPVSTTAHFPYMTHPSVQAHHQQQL
Experiment: qHTS for Inhibitors of ATXN expression.
Assay type: functional
The whole screen tested about 400,000 compounds, of which about 2,100 (0.53%) were called active. About 14% were inconclusive and are not listed. The sample as a whole holds a higher share of actives than the screen did.
Assay readout: Potency

A selection of reference data follows.
COCC(=O)OC1CCn2c1nc1c2C(=O)C(C)=C(NC(C)=O)C1=O (configuration not stated)
10 µM (active)
Cc1cccn2c(=O)c3cc(C(N)=S)c(=N)n(CCCOC(C)C)c3nc12
inactive
Cc1ccccc1NC(=O)COc1ccc(Br)cc1C
inactive
O=C(CCN1CCc2ccccc2C(O)(c2ccccc2)C1)c1ccc2c(c1)OCCO2 (configuration not stated)
39.8 µM (active)
COc1ccc(/C=C(\C)C(=O)c2c(C)cc(C)nc2O)cc1
inactive
CCOC(=O)c1sc2nc(C3CC3)cc(-c3ccc(F)cc3)c2c1N
inactive
O=C(CCN1CCCC1Cc1ccccc1)c1ccc2c(c1)OCCO2 (configuration not stated)
31.6 µM (active)
COc1cc(/C=N/Nc2ccccn2)cc(OC)c1O
inactive
CC(=O)CCC(=O)OCC(=O)c1ccc(C(F)(F)F)cc1
inactive
Cc1ccc(CNC(=O)CS(=O)(=O)Cc2nc(-c3ccccc3F)oc2C)cc1
inactive

Query: Consider the compound `O=C(NNc1ccccc1Br)C(O)(c1cccc(C(F)(F)F)c1)c1cccc(C(F)(F)F)c1` and give its recorded Potency.
Reply: 20 µM (active)

Query: Consider the compound `CCOC(=O)c1cc2ccc(OC(=O)c3ccco3)cc2oc1=O` and give its recorded Potency.
Reply: inactive

Query: Consider the compound O=C(C1CC(=O)N(c2ccc3c(c2)OCCO3)C1)N1CCN(Cc2ccccc2)CC1 (configuration not stated) and give its recorded Potency.
Reply: inactive

Query: Consider the compound `O=C(/C=C\Nc1ccccc1Br)c1ccc2c(c1)OCO2` and give its recorded Potency.
Reply: inactive

Query: Consider the compound `O=C(Nc1ccn(CCCN2CCN(Cc3cccc4ccccc34)CC2)c(=O)n1)OCc1ccccc1` and give its recorded Potency.
Reply: 14.1 µM (active)

Query: Consider the compound CCCc1ccc(C2Sc3ccccc3NC3=C2C(=O)c2ccccc23)cc1 (configuration not stated) and give its recorded Potency.
Reply: 31.6 µM (active)

Query: Consider the compound `C=CCn1cc[n+](-c2nc3ccccc3nc2[N-]S(=O)(=O)c2cccs2)c1` and give its recorded Potency.
Reply: inactive

Query: Consider the compound `O=C(Cc1cccc2ccccc12)Nc1ccc(Br)cc1C(=O)O` and give its recorded Potency.
Reply: inactive

Query: Consider the compound `CCNc1cc2oc(=O)c(CN3CCOCC3)c(C)c2cc1C` and give its recorded Potency.
Reply: inactive

Query: Consider the compound `O=C(CCN1Cc2ccccc2C1)c1ccc2c(c1)OCCO2` and give its recorded Potency.
Reply: 25.1 µM (active)

Query: Consider the compound `O=C(c1cccs1)N1CCC(c2nc(O)c3nnn(Cc4c(Cl)cccc4Cl)c3n2)CC1` and give its recorded Potency.
Reply: inactive

Query: Consider the compound `COc1ccc(Nc2cnn(-c3nc4ccccc4s3)c(=O)c2Cl)cc1` and give its recorded Potency.
Reply: 25.1 µM (active)

* * *

Target: Ataxin-2 (Homo sapiens)
Experiment: qHTS for Inhibitors of ATXN expression.
Type: functional
Out of some 400,000 compounds screened, about 2,100 (0.53%) were called active. Inconclusive results (about 14%) are left out. The rule behind the calls is not given here. The sample as a whole holds a higher share of actives than the screen did.
Entry note: the call must match one of active, inactive

Check out these entries, answers already filled in.
Cc1cc2nc3ccc(N(C)C)cc3nc2cc1N
active
Cc1ccc(S(=O)(=O)Oc2ccc(C3C4=C(CCCC4=O)N(CCC(=O)O)C4=C3C(=O)CCC4)cc2Cl)cc1
inactive
Cc1occc1C(=O)N1CCC2(CCCN(Cc3ccc(F)c(F)c3)C2)C1 (stereo not given)
inactive
Cc1cc(NCCCOC(C)C)n2c(nc3ccccc32)c1C#N
inactive
CCc1cnc2c(c1SC(C(C)=O)C(=O)N(C)C)c(=O)n(C)c(=O)n2C (stereo not given)
active

Query: Recorded call for NC(=O)CC(NC(=O)c1ccc(Br)cc1)c1ccc(N2CCCCCCC2)c([N+](=O)[O-])c1 (stereo not given) ?
Reply: active

Query: Recorded call for `CN(C)c1ccc2c(O)ccnc2c1` ?
Reply: inactive

Query: Recorded call for `O=c1c2sccc2nc(SCc2cc(=O)n3cc(Cl)ccc3n2)n1Cc1ccccn1` ?
Reply: inactive

Query: Recorded call for `O=C(COc1ccc(Br)cc1)NNC(=O)c1ccc(-n2cncn2)c([N+](=O)[O-])c1` ?
Reply: inactive

Query: Recorded call for `Cc1cc2nn(-c3ccc(Cl)cc3)nc2cc1N` ?
Reply: inactive
